assay_notes: Cytotoxicity against human A-431 cells assessed as inhibition of cell growth at 100 uM incubated for 72 hrs by MTT assay
Assay type: toxicity, cell-based
parameter: inhibition at 72 h, 100 µM (%)
Response body: numeric value in %, unit text excluded.

Check out these entries, answers already filled in.
| compound | inhibition at 72 h, 100 µM (%) |
| --- | --- |
| COCCOc1cc2ncnc(Nc3cccc(-c4cn(CCCNC(=S)Nc5ccc(CC6CN(CC(=O)O)CCN(CC(=O)O)CCN(CC(=O)O)CCN6CC(=O)O)cc5)nn4)c3)c2cc1OCCOC (centres undefined) | 91.3 |
| C#Cc1cccc(Nc2ncnc3cc(OCCOC)c(OCCOC)cc23)c1 | 92.7 |
| COCCOc1cc2ncnc(Nc3cccc(-c4cn(CCOCCOCCOCCOCCOCCOCCNC(=S)Nc5ccc(CC6CN(CC(=O)O)CCN(CC(=O)O)CCN(CC(=O)O)CCN6CC(=O)O)cc5)nn4)c3)c2cc1OCCOC (centres undefined) | 90.9 |

Ask: Which measured inhibition at 72 h, 100 µM value corresponds to COCCOc1cc2ncnc(Nc3cccc(-c4cn(CCOCCOCCOCCNC(=S)Nc5ccc(CC6CN(CC(=O)O)CCN(CC(=O)O)CCN(CC(=O)O)CCN6CC(=O)O)cc5)nn4)c3)c2cc1OCCOC (centres undefined) ?
Result: 92.6
